System: E. coli NIHJ JC2
Assay: in vitro antibacterial activity, agar plate dilution method (MIC)
Format: cell-based
Settings: Escherichia coli, NIHJJC2, 16 h, read-out: Minimum Inhibitory Concentration (MIC)
Measured Parameter: MIC

NC(=O)c1ccc(COC2=C(C(=O)[O-])N3C(=O)[C@@H](NC(=O)/C(=N\OCC(=O)[O-])c4csc(N)n4)[C@H]3SC2)cc1.[Na+].[Na+] [Example 22] :: 0.05 µg/mL

Query: State its MIC for this compound: CO/N=C(\C(=O)N[C@@H]1C(=O)N2C(C(=O)[O-])=C(OCc3nc(C)cs3)CS[C@H]12)c1csc(N)n1.[Na+] [Example 16]
Reply: 0.2 µg/mL

Query: State its MIC for this compound: CO/N=C(\C(=O)N[C@@H]1C(=O)N2C(C(=O)[O-])=C(OCc3ccncc3)CS[C@H]12)c1csc(N)n1.[Na+] [Example 1]
Reply: 0.2 µg/mL

Query: State its MIC for this compound: C=C(O/N=C(\C(=O)N[C@@H]1C(=O)N2C(C(=O)[O-])=C(OCc3cc[n+](C)cc3)CS[C@H]12)c1csc(N)n1)C(=O)O [Example 37]
Reply: 0.025 µg/mL

Query: State its MIC for this compound: CO/N=C(\C(=O)N[C@@H]1C(=O)N2C(C(=O)[O-])=C(OCc3ccc(C#N)cc3)CS[C@H]12)c1csc(N)n1.[Na+] [Example 12]
Reply: 0.78 µg/mL
